Kindly supply the reported MIC Enterococcus faecalis (ATCC 29212) values for the records listed here.
Tested on: Enterococcus sp.
Assay: in vitro antibacterial evaluation, MIC by broth dilution
Type: cell-based
Settings: strain ATCC 29212; broth dilution, 18 hours at 35° C.
Just the number please, in µg/mL, no unit attached.

Query: Specify MIC Enterococcus faecalis (ATCC 29212) for Cc1ccc(Oc2cccc(-c3nc4cc(CC5NC(=O)C(C(C)c6ccccc6)NC(=O)CNC(=O)C(CO)NC(=O)C(C(O)C6CNC(=N)N6C6OC(CO)C(O)C(O)C6O)NC(=O)C(C(O)C6CNC(=N)N6)NC5=O)ccc4o3)c2)cc1 (stereo not drawn) and stop.
Response: 8

Query: Specify MIC Enterococcus faecalis (ATCC 29212) for Cc1ccc(Oc2ccc(C3OCC4OC(OC5C(CO)OC(Oc6ccc(CC7NC(=O)C(C(C)c8ccccc8)NC(=O)CNC(=O)C(CO)NC(=O)C(C(O)C8CNC(=N)N8C8OC(CO)C(O)C(O)C8O)NC(=O)C(C(O)C8CNC(=N)N8)NC7=O)cc6)C(O)C5O)C(O)C(O)C4O3)cc2)cc1 (stereo not drawn) and stop.
Response: 2

* * *

Test system: Staphylococcus sp.
Test: in vitro antibacterial evaluation, MIC by broth dilution
Assay type: cell-based
Details: broth dilution, 18 hours at 35° C.
Numbered stars: 1 amine (or outer) side, 2 acyl side, 3 side chain; on linkers, the order of the positions; unused ones are H or OH. Square brackets hold non-standard residues; d marks the D form. Peptide text beside a SMILES is read from it. * marks the point of attachment. ξ: configuration not given here. X6 = N=C1NCC(CC(N[*:1])C(=O)[*:2])N1C1OC(CO)C(O)C(O)C1O; ξEnduracididine(βξ-OH,4'ξ) = N=C1NCC(C(O)C(N)C(=O)O)N1; X2 = OCC1OC(OC2C(CO)OC(*)C(O)C2O)C(O)C(O)C1O; ξPhe(βξ-Me) = CC(c1ccccc1)C(N)C(=O)O
ATTRIBUTE MEASURED: MIC Staphylococcus aureus (GC 3053)

Query: Specify MIC Staphylococcus aureus (GC 3053) for CC(c1ccccc1)C1NC(=O)CNC(=O)C(CO)NC(=O)C(C(O)C2CNC(=N)N2C2OC(CO)C(O)C(O)C2O)NC(=O)C(C(O)C2CNC(=N)N2)NC(=O)C(Cc2ccc(OC3OC(CO)C(OC4OC(COCC=C(c5ccccc5)c5ccccc5)C(O)C(O)C4O)C(O)C3O)cc2)NC1=O (stereo not shown) and stop.
Response: 2 µg/mL

Query: Specify MIC Staphylococcus aureus (GC 3053) for COc1ccc(COCC2OC(OC3C(CO)OC(Oc4ccc(CC5NC(=O)C(C(C)c6ccccc6)NC(=O)CNC(=O)C(CO)NC(=O)C(C(O)C6CNC(=N)N6C6OC(CO)C(O)C(O)C6O)NC(=O)C(C(O)C6CNC(=N)N6)NC5=O)cc4)C(O)C3O)C(O)C(O)C2O)cc1 (stereo not shown) and stop.
Response: 8 µg/mL

Query: Specify MIC Staphylococcus aureus (GC 3053) for COc1cccc(C2OCC3OC(OC4C(CO)OC(Oc5ccc(CC6NC(=O)C(C(C)c7ccccc7)NC(=O)CNC(=O)C(CO)NC(=O)C(C(O)C7CNC(=N)N7C7OC(CO)C(O)C(O)C7O)NC(=O)C(C(O)C7CNC(=N)N7)NC6=O)cc5)C(O)C4O)C(O)C(O)C3O2)c1 (stereo not shown) and stop.
Response: 2 to 4 µg/mL

Query: Specify MIC Staphylococcus aureus (GC 3053) for CC(c1ccccc1)C1NC(=O)CNC(=O)C(CO)NC(=O)C(CC2CNC(=N)N2C2OC(CO)C(O)C(O)C2O)NC(=O)C(C(O)C2CNC(=N)N2)NC(=O)C(Cc2ccc(OC3OC(CO)C(OC4OC(CO)C(O)C(O)C4O)C(O)C3O)cc2)NC1=O (stereo not drawn) [Example 284b] (cyclo(G[ξPhe(βξ-Me)]Y(X2)[ξEnduracididine(βξ-OH,4'ξ)][X6]S); configuration not given here) and stop.
Response: >128 µg/mL

Query: Specify MIC Staphylococcus aureus (GC 3053) for CC(c1ccccc1)C1NC(=O)CNC(=O)C(CO)NC(=O)C(C(O)C2CNC(=N)N2C2OC(CO)C(O)C(O)C2O)NC(=O)C(C(O)C2CNC(=N)N2)NC(=O)C(Cc2ccc(OC3OC(CO)C(OC4OC5COC(Cc6ccc(Cl)cc6)OC5C(O)C4O)C(O)C3O)cc2)NC1=O (stereo not shown) and stop.
Response: 1 µg/mL

Query: Specify MIC Staphylococcus aureus (GC 3053) for N=C1NCC(C(O)C2NC(=O)C(Cc3ccc(OC4OC(CO)C(OC5OC6COC7(OC6C6OC8(OC56)C5CC6CC(C5)CC8C6)C5CC6CC(C5)CC7C6)C(O)C4O)cc3)NC(=O)C(CC3CCCCC3)NC(=O)CNC(=O)C(CO)NC(=O)C(C(O)C3CNC(=N)N3C3OC(CO)C(O)C(O)C3O)NC2=O)N1 (stereo not shown) [Example 106b] and stop.
Response: 8 µg/mL

Query: Specify MIC Staphylococcus aureus (GC 3053) for CCOc1cc(COCC2OC(OC3C(CO)OC(Oc4ccc(CC5NC(=O)C(C(C)c6ccccc6)NC(=O)CNC(=O)C(CO)NC(=O)C(C(O)C6CNC(=N)N6C6OC(CO)C(O)C(O)C6O)NC(=O)C(C(O)C6CNC(=N)N6)NC5=O)cc4)C(O)C3O)C(O)C(O)C2O)ccc1OC (stereo not shown) and stop.
Response: 8 µg/mL

Entry source: patent US6914045B2
